testedSystem: benzodiazepine site of the GABAA receptor
assayName: Binding assay (3H-Ro15-1788 displacement, rat cortical tissue homogenate)
appliedConditions: 0.5 nM 3H-Ro15-1788 [3H-Flumazenil], 30 min at 4° C., Cheng-Prussof equation
The following compounds are listed with their measured log10 of Ki values.
Please note: log10 values; quantity Ki; unit nM.

COc1ccc(C2CCc3[nH]cc(C(=O)Nc4ccccn4)c3C(=O)C2)cc1F (stereo not drawn) [Example 5]    0.90
CN1CC2CCc3[nH]cc(C(=O)Nc4ccccn4)c3C(=O)C2C1 (stereo not drawn) [Example 8]    0.90
CC(C)C1CCc2[nH]cc(C(=O)Nc3ccccn3)c2C(=O)C1 (stereo not drawn) [Example 3]    0.00
CN(C)CC1CCc2[nH]cc(C(=O)Nc3ccccn3)c2C(=O)C1 (stereo not drawn) [Example 9]    1.36
O=C(Nc1ccccn1)c1c[nH]c2c1C(=O)C1CNCC1CC2 (stereo not drawn) [Example 7]    0.85

Then there is this compound:
Inquiry: # log10 of Ki lookup, item O=C(Nc1ccccn1)c1c[nH]c2c1C(=O)C1CN(Cc3ccccc3)CC1CC2 (stereo not drawn) [Example 6]
Reply text: 0.60

====

Readings of pKi for the listed compounds
testedSystem: benzodiazepine site of the GABAA receptor
assayName: Binding assay (3H-Ro15-1788 displacement, rat cortical tissue homogenate)
appliedConditions: 0.5 nM 3H-Ro15-1788 [3H-Flumazenil], 30 min at 4° C., Cheng-Prussof equation
Remember the convention: pKi equals -log10 of concentration in molar.

O=C(Nc1ccccn1)c1c[nH]c2c1C(=O)CC(c1ccc(F)cc1)CC2 (stereo not drawn)    8.15

Inquiry: Test system benzodiazepine site of the GABAA receptor; read-out pKi; what value for O=C(Nc1ccccn1)C1C=NC2=C1C(Nc1ccccn1)CCCC2 (stereo not drawn) ?
Reply text: 7.62

Inquiry: // fetch benzodiazepine site of the GABAA receptor pKi for CC1CCc2[nH]cc(C(=O)Nc3ccccn3)c2C(=O)C1 (stereo not drawn)
Reply text: 8.70
